# System: RXF 393
# METHOD SUMMARY: NCI 60 antitumor screening (single dose / five doses)
# Format: cell-based
# MEASUREMENT PARAMETERS: Homo sapiens; RXF 393 (renal cancer), single dose 10 μM; read-out: Growth inhibition percentage (GI %)
Quick rule: inhibition at 10 µM of at least 20% means MET, below that means NOT MET.

Fc1cccc(/C=N/Nc2nc(N/N=C/c3cccc(F)c3)nc(N3CCOCC3)n2)c1
MET
COC(=O)C(Cc1ccccc1)Nc1nc(NC(Cc2ccccc2)C(=O)OC)nc(N2CCOCC2)n1 (centres unmarked)
NOT MET
Fc1cccc(Cl)c1/C=N/Nc1nc(N/N=C/c2c(F)cccc2Cl)nc(N2CCOCC2)n1
NOT MET
Clc1cccc(/C=N/Nc2nc(N/N=C/c3cccc(Cl)c3Cl)nc(N3CCCCC3)n2)c1Cl
NOT MET
C(=N\Nc1nc(N/N=C/c2ccc3c(c2)OCO3)nc(N2CCOCC2)n1)/c1ccc2c(c1)OCO2
MET
Brc1cccc(/C=N/Nc2nc(N/N=C/c3cccc(Br)c3)nc(N3CCCCC3)n2)c1
NOT MET
Clc1cccc(/C=N/Nc2nc(N/N=C/c3cccc(Cl)c3)nc(N3CCOCC3)n2)c1
MET
Oc1ccc(/C=N/Nc2nc(N/N=C/c3ccc(O)c(O)c3)nc(N3CCOCC3)n2)cc1O
NOT MET

* * *

# Test system: COLO 205
# METHOD SUMMARY: NCI 60 antitumor screening (single dose / five doses)
# Format: cell-based
# MEASUREMENT PARAMETERS: Homo sapiens; COLO 205 (colon cancer), single dose 10 μM; read-out: Growth inhibition percentage (GI %)
Quick rule: inhibition at 10 µM of at least 10% means Fulfilled, below that means Not fulfilled.

COC(=O)C(Cc1ccccc1)Nc1nc(NC(Cc2ccccc2)C(=O)OC)nc(N2CCOCC2)n1 (centres unmarked)
Not fulfilled
Brc1cccc(/C=N/Nc2nc(N/N=C/c3cccc(Br)c3)nc(N3CCCCC3)n2)c1
Not fulfilled
Fc1cccc(/C=N/Nc2nc(N/N=C/c3cccc(F)c3)nc(N3CCCCC3)n2)c1
Not fulfilled
C(=N\Nc1nc(N/N=C/c2ccc3c(c2)OCO3)nc(N2CCOCC2)n1)/c1ccc2c(c1)OCO2
Fulfilled
Oc1ccc(/C=N/Nc2nc(N/N=C/c3ccc(O)c(O)c3)nc(N3CCCCC3)n2)cc1O
Not fulfilled
Oc1ccccc1/C=N/Nc1nc(N/N=C/c2ccccc2O)nc(N2CCCCC2)n1
Fulfilled
Brc1ccccc1/C=N/Nc1nc(N/N=C/c2ccccc2Br)nc(N2CCCCC2)n1
Not fulfilled
C(=N\Nc1nc(N/N=C/c2ccc3c(c2)OCO3)nc(N2CCCCC2)n1)/c1ccc2c(c1)OCO2
Fulfilled

* * *

# System: U251
# METHOD SUMMARY: NCI 60 antitumor screening (single dose)
# Assay type: cell-based
# MEASUREMENT PARAMETERS: Homo sapiens, U-251; U251 (CNS cancer), single dose 10 μM; read-out: Growth inhibition percentage (GI %)
Reported inhibition at 10 µM values follow for various compounds
ENDPOINT NAME: inhibition at 10 µM (%)

Clc1cccc(/C=N/Nc2nc(N/N=C/c3cccc(Cl)c3)nc(N3CCOCC3)n2)c1 [compound 6d]
39.6
Clc1cccc(/C=N/Nc2nc(N/N=C/c3cccc(Cl)c3Cl)nc(N3CCOCC3)n2)c1Cl [compound 6h]
21
C/C(=N\Nc1nc(N/N=C(\C)c2ccc([N+](=O)[O-])cc2)nc(N2CCOCC2)n1)c1ccc([N+](=O)[O-])cc1 [compound 8a]
7.36
Clc1cccc(/C=N/Nc2nc(N/N=C/c3cccc(Cl)c3)nc(N3CCCCC3)n2)c1 [compound 7d]
8.35
Brc1cccc(/C=N/Nc2nc(N/N=C/c3cccc(Br)c3)nc(N3CCOCC3)n2)c1 [compound 6c]
57.3
